# ASSAYED_SYSTEM: Delta-type opioid receptor (Rattus norvegicus, UniProt P33533)
# Sequence (P33533 whole entry): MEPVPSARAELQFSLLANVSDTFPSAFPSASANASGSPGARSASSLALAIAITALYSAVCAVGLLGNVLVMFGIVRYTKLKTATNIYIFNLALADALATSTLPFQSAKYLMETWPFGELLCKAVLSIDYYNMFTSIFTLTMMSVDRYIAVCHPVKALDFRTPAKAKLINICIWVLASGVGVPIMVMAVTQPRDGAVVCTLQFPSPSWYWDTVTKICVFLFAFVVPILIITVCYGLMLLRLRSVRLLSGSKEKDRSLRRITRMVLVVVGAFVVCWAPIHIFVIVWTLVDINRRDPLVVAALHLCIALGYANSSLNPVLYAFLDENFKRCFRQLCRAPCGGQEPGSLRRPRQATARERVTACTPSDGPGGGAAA
# TEST_NAME: Displacement of [3H]diprenorphine from rat delta opioid receptor expressed in CHO-K1 cells
Parameter: Ki. Scope: all listed entries.
PARAMETER: Ki (µM)

>>> reported_measurement("Cc1ccc2nc(NC(=O)c3ccc(Cl)cc3)nc(NC3CCCCC3NC(=N)N)c2c1 (racemic)")
4
>>> reported_measurement("Cc1ccc2nc(NC(=O)c3ccc(Cl)cc3)nc(N[C@@H]3CCCC[C@@H]3NC(=N)N)c2c1 (single isomer, unassigned)")
3.6
>>> reported_measurement("Cc1ccc2nc(NC(=O)c3ccc(Cl)cc3)nc(N[C@H]3CCCC[C@H]3NC(=N)N)c2c1 (single isomer, unassigned)")
4.3

All values here come from ChEMBL document CHEMBL1139314.
